Tested on: 945468-187-T-J2-PDC spheroids viability
assay_details: Anticancer human tumor 945468-187-T-J2-PDC patient-derived rectal carcinoma cell line growth inhibition [PI3K]
test_conditions: second compound 0.0316 µM; first compound 0.0316 µM; stronger effect = lower value; spheroids with HUVEC and MSC
Here, each record is paired with measured viability, T/C data.
API: value field is a number in %; no unit string.

A selection of reference data follows.
[[record]]
compound = "Cn1ncc(Cl)c1-c1cc(C(=O)NC(CN)Cc2cccc(F)c2)sc1Cl (stereo not drawn) + CC(Nc1ccc2c(c1)OCCn1cc(N3C(=O)OCC3C(F)F)nc1-2)C(N)=O"
unit_string = "%"
assay_value = 99.8

[[record]]
compound = "Cn1nccc1Nc1nccc(-c2ccn(C(CO)c3ccc(Cl)c(F)c3)c(=O)c2)n1 (stereo not drawn) + Cc1nc(NC(=O)N2CCCC2C(N)=O)sc1-c1ccnc(C(C)(C)C(F)(F)F)c1"
unit_string = "%"
assay_value = 107


In the following, a different compound is considered.
Please report the recorded viability, T/C for CC1(C)CCC(Nc2ncc(C(F)(F)F)c(-c3c[nH]c4c(P(C)(C)=O)c(C#N)ccc34)n2)CN1 (stereo not drawn) + CC(Nc1ncnc2nc[nH]c12)c1cc2cccc(Cl)c2c(=O)n1-c1ccccc1 . 91.5

====

Recorded viability, T/C by entry
System: 945468-187-T-J2-PDC spheroids viability
assay_details: Anticancer human tumor 945468-187-T-J2-PDC cell line growth inhibition [PI3K];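 further: spheroids exposed to compounds for seven days before reading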
test_conditions: second compound 0.0316 µM; first compound 10 µM; stronger effect = lower value; spheroids with HUVEC and MSC
Record the value in %, omitting the unit from your answer.

[[record]]
compound = "CC(Cn1ccc(-c2ccc(C#N)c(Cl)c2)n1)NC(=O)c1cc(C(C)O)[nH]n1 (stereo not drawn) + COc1c(OCCCN2CCOCC2)ccc2c3n(c(=NC(=O)c4cnc(N)nc4)nc12)CCN3"
assay_value = 89.3


Consider the additional compound presented here.
# lookup: viability, T/C of C=CC(=O)N1CCN(c2nc(=O)n(-c3c(C)ccnc3C(C)C)c3nc(-c4c(O)cccc4F)c(F)cc23)C(C)C1 (stereo not drawn) + CC(Nc1ncnc2nc[nH]c12)c1cc2cccc(Cl)c2c(=O)n1-c1ccccc1 95.8

====

Parameter: viability, T/C. Scope: all listed entries.
Test system: 945468-187-T-J2-PDC spheroids viability
assay_details: Anticancer human tumor 945468-187-T-J2-PDC cell line growth inhibition [PI3K];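 further: spheroids exposed to compounds for seven days before reading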
test_conditions: second compound 0.0316 µM; first compound 0.316 µM; stronger effect = lower value; spheroids with HUVEC and MSC

Here's what some known entries look like.
[[record]]
molecule = "C#Cc1c(F)ccc2cc(O)cc(-c3ncc4c(N5CC6CCC(C5)N6)nc(OCC56CCCN5CC(F)C6)nc4c3F)c12 (centres undefined) + CC(Nc1ccc2c(c1)OCCn1cc(N3C(=O)OCC3C(F)F)nc1-2)C(N)=O"
assay_value = "79.7%"

[[record]]
molecule = "C=CC(=O)N1CCN(c2nc(=O)n(-c3c(C)ccnc3C(C)C)c3nc(-c4c(O)cccc4F)c(F)cc23)C(C)C1 (centres undefined) + CC(Nc1ncnc2nc[nH]c12)c1cc2cccc(Cl)c2c(=O)n1-c1ccccc1"
assay_value = "100%"

[[record]]
molecule = "CCN1CCN(Cc2ccc(Nc3ncc(F)c(-c4cc(F)c5nc(C)n(C(C)C)c5c4)n3)nc2)CC1 + COc1c(OCCCN2CCOCC2)ccc2c3n(c(=NC(=O)c4cnc(N)nc4)nc12)CCN3"
assay_value = "69%"


Read the next record carefully.
Quick one: viability, T/C for CC(C)NCC(C(=O)N1CCN(c2ncnc3c2C(C)CC3O)CC1)c1ccc(Cl)cc1 (centres undefined) + COc1c(OCCCN2CCOCC2)ccc2c3n(c(=NC(=O)c4cnc(N)nc4)nc12)CCN3 ? 112%

====

System: 945468-187-T-J2-PDC spheroids viability
assay_details: Anticancer human tumor 945468-187-T-J2-PDC cell line growth inhibition [PI3K];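 further: spheroids exposed to compounds for seven days before reading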
test_conditions: second compound 0.316 µM; first compound 0.00316 µM; stronger effect = lower value; spheroids with HUVEC and MSC
observed_property: viability, T/C (%)
I only need the number, in %, no unit after it.

[[record]]
compound = "CC(=O)c1c(C)c2cnc(Nc3ccc(N4CCNCC4)cn3)nc2n(C2CCCC2)c1=O + COc1c(OCCCN2CCOCC2)ccc2c3n(c(=NC(=O)c4cnc(N)nc4)nc12)CCN3"
assay_value = 45.7

[[record]]
compound = "Cn1ncnc1[C@H]1c2n[nH]c(=O)c3cc(F)cc(c23)N[C@@H]1c1ccc(F)cc1 + CC(Nc1ncnc2nc[nH]c12)c1cc2cccc(Cl)c2c(=O)n1-c1ccccc1"
assay_value = 130

[[record]]
compound = "Cn1ncnc1[C@H]1c2n[nH]c(=O)c3cc(F)cc(c23)N[C@@H]1c1ccc(F)cc1 + CC(Nc1ccc2c(c1)OCCn1cc(N3C(=O)OCC3C(F)F)nc1-2)C(N)=O"
assay_value = 100

[[record]]
compound = "CC(C)n1nc(-c2ccc3oc(N)nc3c2)c2c(N)ncnc21 + CC(Nc1ncnc2nc[nH]c12)c1cc2cccc(Cl)c2c(=O)n1-c1ccccc1"
assay_value = 94.7

[[record]]
compound = "CC(=O)c1c(C)c2cnc(Nc3ccc(N4CCNCC4)cn3)nc2n(C2CCCC2)c1=O + CC(Nc1ncnc2nc[nH]c12)c1cc2cccc(Cl)c2c(=O)n1-c1ccccc1"
assay_value = 103


Notebook: pull reported viability, T/C for 945468-187-T-J2-PDC spheroids viability, entry CC(C)n1nc(-c2ccc3oc(N)nc3c2)c2c(N)ncnc21 + CC(Nc1ccc2c(c1)OCCn1cc(N3C(=O)OCC3C(F)F)nc1-2)C(N)=O 82.2

Return viability, T/C measured with 945468-187-T-J2-PDC spheroids viability given this compound: Cn1ncnc1[C@H]1c2n[nH]c(=O)c3cc(F)cc(c23)N[C@@H]1c1ccc(F)cc1 + COc1c(OCCCN2CCOCC2)ccc2c3n(c(=NC(=O)c4cnc(N)nc4)nc12)CCN3 43.5

Notebook entry, 945468-187-T-J2-PDC spheroids viability assay: viability, T/C of CCN1CCN(Cc2ccc(Nc3ncc(F)c(-c4cc(F)c5nc(C)n(C(C)C)c5c4)n3)nc2)CC1 + COc1c(OCCCN2CCOCC2)ccc2c3n(c(=NC(=O)c4cnc(N)nc4)nc12)CCN3 = ? 48.7

Find the measured viability, T/C: item CCN1CCN(Cc2ccc(Nc3ncc(F)c(-c4cc(F)c5nc(C)n(C(C)C)c5c4)n3)nc2)CC1 + CC(Nc1ncnc2nc[nH]c12)c1cc2cccc(Cl)c2c(=O)n1-c1ccccc1 , target or system 945468-187-T-J2-PDC spheroids viability. 83.9

Hi! What's the reported viability, T/C for CCN1CCN(Cc2ccc(Nc3ncc(F)c(-c4cc(F)c5nc(C)n(C(C)C)c5c4)n3)nc2)CC1 + CC(Nc1ccc2c(c1)OCCn1cc(N3C(=O)OCC3C(F)F)nc1-2)C(N)=O on 945468-187-T-J2-PDC spheroids viability? 78.2

Query viability, T/C on 945468-187-T-J2-PDC spheroids viability for CC(=O)c1c(C)c2cnc(Nc3ccc(N4CCNCC4)cn3)nc2n(C2CCCC2)c1=O + Cc1nc(NC(=O)N2CCCC2C(N)=O)sc1-c1ccnc(C(C)(C)C(F)(F)F)c1 95.5

Checklist item: viability, T/C tested on 945468-187-T-J2-PDC spheroids viability, entry CC(=O)c1c(C)c2cnc(Nc3ccc(N4CCNCC4)cn3)nc2n(C2CCCC2)c1=O + CC(Nc1ccc2c(c1)OCCn1cc(N3C(=O)OCC3C(F)F)nc1-2)C(N)=O , value? 79

====

Examples of compounds with documented viability, T/C follow.
Test system: 945468-187-T-J2-PDC spheroids viability
assay_details: Anticancer human tumor 945468-187-T-J2-PDC cell line growth inhibition [PI3K];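 further: spheroids exposed to compounds for seven days before reading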
test_conditions: second compound 0.00316 µM; first compound 10 µM; stronger effect = lower value; spheroids with HUVEC and MSC
Description: Combinatorial screen of targeted agents with the PI3K inhibitors inavolisib, alpelisib, duvelisib, and copanlisib in multi-cell type tumor spheroids A high-throughput screen of multi-cell type tumor spheroids was designed to identify active combinations of targeted small molecules and PI3K pathway inhibitors. […] Compounds. […] If the clinical Cmax for an agent had not been determined, the highest concentration tested was 10 microM. […]
// note: answer is a bare numeric in %

Solved entries (count: 5):
[[record]]
compound = "Cn1ncc(Cl)c1-c1cc(C(=O)NC(CN)Cc2cccc(F)c2)sc1Cl (stereo not given) + CC(Nc1ccc2c(c1)OCCn1cc(N3C(=O)OCC3C(F)F)nc1-2)C(N)=O"
assayed_system = "945468-187-T-J2-PDC spheroids viability"
unit_string = "%"
assay_value = 73.8

[[record]]
compound = "Cn1nccc1Nc1nccc(-c2ccn(C(CO)c3ccc(Cl)c(F)c3)c(=O)c2)n1 (stereo not given) + COc1c(OCCCN2CCOCC2)ccc2c3n(c(=NC(=O)c4cnc(N)nc4)nc12)CCN3"
assayed_system = "945468-187-T-J2-PDC spheroids viability"
unit_string = "%"
assay_value = 80.7

[[record]]
compound = "CC1(C)CCC(CN2CCN(c3ccc(C(=O)NS(=O)(=O)c4ccc(NCC5CCOCC5)c([N+](=O)[O-])c4)c(Oc4cnc5[nH]ccc5c4)c3)CC2)=C(c2ccc(Cl)cc2)C1 + COc1c(OCCCN2CCOCC2)ccc2c3n(c(=NC(=O)c4cnc(N)nc4)nc12)CCN3"
assayed_system = "945468-187-T-J2-PDC spheroids viability"
unit_string = "%"
assay_value = 74.1

[[record]]
compound = "CC(Cn1ccc(-c2ccc(C#N)c(Cl)c2)n1)NC(=O)c1cc(C(C)O)[nH]n1 (stereo not given) + COc1c(OCCCN2CCOCC2)ccc2c3n(c(=NC(=O)c4cnc(N)nc4)nc12)CCN3"
assayed_system = "945468-187-T-J2-PDC spheroids viability"
unit_string = "%"
assay_value = 114

[[record]]
compound = "CC1(C)CCC(CN2CCN(c3ccc(C(=O)NS(=O)(=O)c4ccc(NCC5CCOCC5)c([N+](=O)[O-])c4)c(Oc4cnc5[nH]ccc5c4)c3)CC2)=C(c2ccc(Cl)cc2)C1 + CC(Nc1ccc2c(c1)OCCn1cc(N3C(=O)OCC3C(F)F)nc1-2)C(N)=O"
assayed_system = "945468-187-T-J2-PDC spheroids viability"
unit_string = "%"
assay_value = 38.8


Requested read-out viability, T/C, target or system 945468-187-T-J2-PDC spheroids viability, entry C=CC(=O)N1CCN(c2nc(=O)n(-c3c(C)ccnc3C(C)C)c3nc(-c4c(O)cccc4F)c(F)cc23)C(C)C1 (stereo not given) + CC(Nc1ccc2c(c1)OCCn1cc(N3C(=O)OCC3C(F)F)nc1-2)C(N)=O 101

Record lookup: for 945468-187-T-J2-PDC spheroids viability, what viability, T/C belongs to CCCS(=O)(=O)Nc1ccc(F)c(C(=O)c2c[nH]c3ncc(-c4ccc(Cl)cc4)cc23)c1F + COc1c(OCCCN2CCOCC2)ccc2c3n(c(=NC(=O)c4cnc(N)nc4)nc12)CCN3 ? 14.6

Fill in the recorded viability, T/C for this compound, with 945468-187-T-J2-PDC spheroids viability as test system: CC1(C)CCC(Nc2ncc(C(F)(F)F)c(-c3c[nH]c4c(P(C)(C)=O)c(C#N)ccc34)n2)CN1 (stereo not given) + COc1c(OCCCN2CCOCC2)ccc2c3n(c(=NC(=O)c4cnc(N)nc4)nc12)CCN3 27.6

Kindly state the measured viability, T/C obtained for C[C@@H](NC(=O)c1ncnc(N)c1Cl)c1ncc(C(=O)Nc2cc(C(F)(F)F)c(Cl)cn2)s1 + CC(Nc1ccc2c(c1)OCCn1cc(N3C(=O)OCC3C(F)F)nc1-2)C(N)=O with 945468-187-T-J2-PDC spheroids viability. 96.7

Enter reported viability, T/C observed with 945468-187-T-J2-PDC spheroids viability for C=CC(=O)N1CCN(c2nc(=O)n(-c3c(C)ccnc3C(C)C)c3nc(-c4c(O)cccc4F)c(F)cc23)C(C)C1 (stereo not given) + COc1c(OCCCN2CCOCC2)ccc2c3n(c(=NC(=O)c4cnc(N)nc4)nc12)CCN3 120

Reference source: PubChem BioAssay AID1963972
